Attribution: the supplement of paper PMC9170038

Entries and their apparent KD of K4 kissing-loop reporter
- Tested on: K4 kissing-loop RNA reporter;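 note: bound reporter read as fluorescence of individual clusters on recovered sequencing chips by microscopy, with normalized cluster intensities fitted with a binding model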
- assay: apparent KD of K4 kissing-loop reporter; higher = weaker reporter binding
- experimental-setup: Eterna round: R107; input ligand: tryptophan 2.4 mM
Report the value in nM with no unit label.

The cases that follow already have their apparent KD of K4 kissing-loop reporter on record.
seq	apparent KD of K4 kissing-loop reporter, nM
CGUACGGUUUCUUUCUUUCCGUACGCGUGCCGAGGACCGGUACGGCCGCCACUCGCUACAGCCUAGUGAUGUUAGGCAAUUCUUU	89.9
AGAACUGUCUGAGAUACCAGCCAUAGGAGUGAUGUUCCUAGCUCCACAAAGUGGAGCCAUGGCCCUUGGCAGCUCAGACAGUUCA [Omei KL Theo B SS A v8]	206
UGGAUAUAGUGAUGUUAUAUAGAGAGUGAUACCAGUUUAGAGAAGAACCCUUGGCAGCAUAGAAGAGUAUCAUUGGAGAAGAAUG [ExTheophyl.Aq]	155
GAGGUACAGGCGGCCGCCACUAGUGAUGUUAGUGAUAGAAGAUAUAGUAAAUAUCGGCAUGUAGAUAGGACCGGGCCUGGUGGAG [vvgtcmullin]	287
UAUAUAUGAUGUGAUACCAGUGAAAAGCCAGUGAUGUUGGAAGAACUGGUAUAUAAAUAACACCCUUGGCAGCACAAUCACGUAU [theophylline b exclusion]	268
UUUGUAUAGGGAAGGAGCGUGAAUGAUAAUGAAUAUAGUGAUGUUAUAUAGAAGAAAGAAUCACAGGUAGGUCGCCCGGAGGAGG [SSArgB.I]	247
AUUCGAUCAGUGAUGUUGAUCAAAGUCGAAGGAGCGGACGAAAGUCCAGGUAGGUCGCGACUACAAGGUGUUAAGACACCUCGAA [Spvincent t9 mod #OpenEnded]	224
UGGAGUUGACGAAAAGUCAACUCCCGAGAAGGAGCGGACGAAAGUCCAGGUAGGUCGCUCACUACCAGUGAUGUUGGUACUAAAA	111
UGUUCAAGUGAUGUUUGAGACUAGGUGGAUACCAGCGCAUGCAGUCGCCCUUGGCAGCCAGAAACCAACGCCGCGCGCUUCGGCU [theeternabot_sameState_KL_Theo_A_39]	334
GGUAGCAUGGCGGCCGCCACUCUUCAUUAGUGAUGUUAAUGCCGAGUGGGCAAACUCCGCCAGGAGAGGACCGGGCCAUGCUACC	244

Look up apparent KD of K4 kissing-loop reporter: UUUGGAUUGCGCGAAGAGUGCAAGCGCCAACGAGGACCGGUACGGCCGCCACUCGCGGAGGAGUCCAGUGAUGUUGGACGGCCCG [Laraones] 185

Likewise for UGUAUAUGAUGUGAUACCAGUGAAGAGCCAGUGAUGUUGGUAGAACUGGUAUAUAAAUAACACCCUUGGCAGCACAAUCACGUAC [whbob_Ex_Theo_B_sa98] ? 196

---

Entries and their apparent KD of MS2 coat protein
- Tested on: MS2 coat protein
- assay: apparent KD of MS2 coat protein, switch OFF state (with FMN for OFF switches, without FMN for ON switches); designed switch direction (-1 OFF switch, 1 ON switch): 1; higher = weaker reporter binding
- experimental-setup: FMN input: 0 or 200 uM; Eterna round: R93 (includes R88 designs)
Report the value in nM with no unit label.

The cases that follow already have their apparent KD of MS2 coat protein on record.
                                        seq   subject_of_test                    quantity_kind  number
0  AAUAUACAUGAGGAUCACCCAUGUUUUAAUAACUCAGGAUAUACGGGUGAAAACAGCAUAGUAGAAGGGAGAAAAA [SameState1 Malc#2]  MS2 coat protein  apparent KD of MS2 coat protein     113
1  GCUUAUCCAUGCUAGGAUAUCGGCGAGAAAACAUGAGGAUCACCCAUGUGCUUGCAUAAAAGUCACGAGAAGGAGCCUGAUGGAC [Quanletira]  MS2 coat protein  apparent KD of MS2 coat protein    17.3
2  GUGUAAAGAAUCGAGGAUAUCCAAAAAAGCACAUGAGGAUCACCCAUGUAAGAGAGAGAAUAAUGGGAGAAGGCGAGUUAUCGGU [JR_SS002_Sub1712]  MS2 coat protein  apparent KD of MS2 coat protein    64.1
3  GAAAAACAUGAGGAUCACCCAUGUAAGAUAAACACAGGAUAUGCGAAAAUAAAUAAAGAAGCAGAAGGGUGAAGAA [Mat - Same State 1 - Tesla mod - 73]  MS2 coat protein  apparent KD of MS2 coat protein    26.5
4  UAGCAGUGCGGGUAGGAUAUGUAGGGUGGUACAUGAGGAUCACCCAUGUAUCCACCCUUCGACCGGCAGAAGGGCCUGUCACUGC [Edor]  MS2 coat protein  apparent KD of MS2 coat protein    16.9

Now examine the next entry.
Look up apparent KD of MS2 coat protein: GACGAACAUGAGGAUCACCCAUGUAAAAACGUACAAGGAUAUGUGUGGAAACCGUACUAUACAGAAGGUGUCUGUC [SS1 - 96] 38.6

---

- Tested on: MS2 coat protein
- assay: apparent KD of MS2 coat protein; designed switch direction (-1 OFF switch, 1 ON switch): -1; higher = weaker reporter binding
- experimental-setup: input ligand: microRNA oligo, concentration not stated
Entries and their apparent KD of MS2 coat protein
Report the value in nM with no unit label.

The cases that follow already have their apparent KD of MS2 coat protein on record.
seq	apparent KD of MS2 coat protein / nM
ACAUGAGGAUCACCCAUGUAAACAUGAUGGCUGAUGUAGAGCUAGGAUAUGAGUGACUUUCUAUCUCAGAAGGAGCUUGACUGG [Deportation 44 - Jieux - Exclusion NG 3] (Eterna round: R96, puzzle: Exclusion NG 3)	26.9
AUCAGCUCGUGAGGAUAUACAUGAGGAUCACCCAUGUGAUCAAUAGCAGCUUCGGCUGCAUUAAUGUAGAAGGUACGAGCUGAU [ENG2/5-C3] (Eterna round: R96, puzzle: Exclusion NG 2)	216
UGAUCUAGCGGAGGAUAUACAUGAGGAUCACCCAUGUAGUGGUGACGUGCGUACAUGUCACCUGUGUAGAAGGCCGCUAGAUCU [JL ENG2 3.58] (Eterna round: R96, puzzle: Exclusion NG 2)	9.65

Now examine the next entry.
Return apparent KD of MS2 coat protein measured with MS2 coat protein given this sequence: GGGUAACAUGAGGAUCACCCAUGUGAGGAUAUUCUAGGGAUGGAAGCUCGGCCGGCCAGGAGAAGGUACUAAAG [Janelle Amethyst 18 Mod 20 - Jieux - Exclusion 1] (Eterna round: R96, puzzle: Exclusion 1) 29.6

---

Entries and their apparent KD of MS2 coat protein
- Tested on: MS2 coat protein
- assay: apparent KD of MS2 coat protein; designed switch direction (-1 OFF switch, 1 ON switch): -1; higher = weaker reporter binding
- experimental-setup: input ligand: none
Report the value in nM with no unit label.

seq	display-unit	apparent KD of MS2 coat protein
ACUUGUGUUGAGGAUAUGCGCCGGCUCGCUGGCGCAGAAGGCGGCACAUGAGGAUCACCCAUGUCAGUUCGCGC [salish99_ex6_r004_001] (Eterna round: R97, puzzle: Exclusion 6)	nM	16.8
GAAUAGCGAGGAUAUGCAAUGAAGAUCGUACGAUAUGGCUGACAUGAGGAUCACCCAUGUAGAAGGCGCUGAUC [EX2 #14] (Eterna round: R97, puzzle: Exclusion 2)	nM	53.7

Look up apparent KD of MS2 coat protein: CAGGAGUCACGAGGAUAUCUGGCUAAACGAACGAGAGAAGGUGUAGACUACCACAUGAGGAUCACCCAUGUUAUGACUAUACUA [Eternabot solution 30] (Eterna round: R96, puzzle: Exclusion NG 1) 17.1

Likewise for CGGUAACAUGAGGAUCACCCAUGUGAGGAUAUCGUACGUUCGUCGAUAGACGAUCGUACGAGAAGGCAUGACCG [Mat - Exclusion 1 - Eli Mod - D33] (Eterna round: R97, puzzle: Exclusion 1) ? 43.9

---

- Test system: MS2 coat protein
- assay: apparent KD of MS2 coat protein; higher = weaker reporter binding
- experimental-setup: Eterna round: R107; input ligand: theophylline 20 uM
Assign class by apparent KD of MS2 coat protein: not lower than 40 nM means 1 (yes); lower than 40 nM means 0 (no).

Consider the worked cases shown below.
seq	label-value
CGCCGAGAGGGAAGGAGCGCGAUAACAUAACAUGAGGAUCACCCAUGUAAGAAAUUAAUCAUGCAGGUAGGUCGCCCAAGCGGCG [Same State Arginine B GF 3]	0 (no)
UAAUCCGGUCCUCGAUAAUCCUCAUGUAAACGAGGACCGGUACGGCCGCCACUCGAUAACAUGAGGAUCACCCAUGUAAUAAUAA [|T'-M'-Trp-Ms2|_Design14]	1 (yes)
GUCCACAUGAGGAUCACCCAUGUAAGUGGGCGAGGACCGGUACGGCCGCCACUCGACAUGUUGACGAAAAGUCAGCAUGAGGACA [#SwitchBubble 3 #GuTurnoff #Tail]	1 (yes)
UAUCCACAUGAGGAUCACCCAUGUGAGGAAGGAGCGGUGAAUGCACCAGGUAGGUCGCCUUGCUGAGGACAGCCGGUGGAUUCGU [Exclusion - Arginine A (Freestyle 25)]	0 (no)
UCGGGCAGAGCGGCCGCCACUGUUUGGCAUGCGGAUGACGGAACAUGAGGAUCACCCAUGUUGAUUAGGACCGGGCUUGCGGAGA [eefullin]	1 (yes)

Consider the record given below.
Decide: apparent KD of MS2 coat protein of ACAUGAGGAUCACCCAUGUAAGAUUCAGAAGGAGCGGGAAAUAACCCAGGUAGGUCGCUGAAGUUUGGUUUAUUGUGUUCGUGAA [#07 Exclusion - Arginine A] >= 40 nM? 0 (no)
